- targetEntity: p110 alpha (Homo sapiens (Human))
- Sequence (P42336 whole entry, canonical isoform): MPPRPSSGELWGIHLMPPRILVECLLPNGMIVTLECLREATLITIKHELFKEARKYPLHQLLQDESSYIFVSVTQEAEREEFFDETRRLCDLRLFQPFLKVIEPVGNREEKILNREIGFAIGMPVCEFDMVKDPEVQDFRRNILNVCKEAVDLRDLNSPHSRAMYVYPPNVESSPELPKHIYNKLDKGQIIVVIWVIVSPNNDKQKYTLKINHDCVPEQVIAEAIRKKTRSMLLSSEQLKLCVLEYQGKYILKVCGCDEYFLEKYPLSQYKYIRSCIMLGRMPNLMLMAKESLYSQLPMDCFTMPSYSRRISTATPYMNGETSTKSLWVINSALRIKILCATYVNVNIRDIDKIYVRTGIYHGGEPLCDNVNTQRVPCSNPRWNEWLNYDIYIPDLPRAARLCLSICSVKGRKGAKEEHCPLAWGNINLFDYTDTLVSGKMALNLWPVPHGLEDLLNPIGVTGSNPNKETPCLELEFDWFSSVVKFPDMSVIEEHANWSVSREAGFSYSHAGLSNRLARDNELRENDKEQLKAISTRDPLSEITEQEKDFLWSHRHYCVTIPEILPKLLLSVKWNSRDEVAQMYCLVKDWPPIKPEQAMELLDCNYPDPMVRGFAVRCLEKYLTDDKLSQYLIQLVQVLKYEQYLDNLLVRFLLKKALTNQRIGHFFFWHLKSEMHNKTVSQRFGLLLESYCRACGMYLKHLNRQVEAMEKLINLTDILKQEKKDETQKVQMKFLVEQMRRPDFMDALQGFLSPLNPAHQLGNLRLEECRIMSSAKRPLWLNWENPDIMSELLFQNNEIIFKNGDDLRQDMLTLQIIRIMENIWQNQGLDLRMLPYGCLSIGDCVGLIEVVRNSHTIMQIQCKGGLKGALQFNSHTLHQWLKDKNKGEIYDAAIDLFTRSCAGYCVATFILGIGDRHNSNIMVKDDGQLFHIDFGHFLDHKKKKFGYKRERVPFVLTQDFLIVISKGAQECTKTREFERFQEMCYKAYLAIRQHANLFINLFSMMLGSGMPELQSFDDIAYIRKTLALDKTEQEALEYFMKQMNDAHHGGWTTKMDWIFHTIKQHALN
- Sequence (P27986 whole entry partner, canonical isoform): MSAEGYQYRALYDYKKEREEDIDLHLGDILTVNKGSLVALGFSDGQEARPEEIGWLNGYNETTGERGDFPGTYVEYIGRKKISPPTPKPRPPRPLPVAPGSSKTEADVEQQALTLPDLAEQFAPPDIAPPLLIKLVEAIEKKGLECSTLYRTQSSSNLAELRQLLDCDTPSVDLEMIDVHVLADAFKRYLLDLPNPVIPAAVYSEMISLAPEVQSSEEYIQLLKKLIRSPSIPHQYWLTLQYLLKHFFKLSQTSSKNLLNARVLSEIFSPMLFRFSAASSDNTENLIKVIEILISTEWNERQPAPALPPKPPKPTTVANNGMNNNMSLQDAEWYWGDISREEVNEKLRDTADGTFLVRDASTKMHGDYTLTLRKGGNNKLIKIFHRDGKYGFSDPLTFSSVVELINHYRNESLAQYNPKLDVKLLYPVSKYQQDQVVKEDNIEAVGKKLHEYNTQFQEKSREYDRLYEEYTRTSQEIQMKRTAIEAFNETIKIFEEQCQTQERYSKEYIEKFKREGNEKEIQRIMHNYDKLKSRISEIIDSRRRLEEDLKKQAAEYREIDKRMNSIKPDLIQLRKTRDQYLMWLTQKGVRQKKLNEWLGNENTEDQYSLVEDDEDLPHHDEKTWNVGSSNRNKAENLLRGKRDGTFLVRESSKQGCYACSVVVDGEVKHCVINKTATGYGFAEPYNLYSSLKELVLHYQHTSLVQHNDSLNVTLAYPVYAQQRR
- testName: PI3K isoform inhibition assay, p110 alpha (for alpha/delta selectivity)
- conditionSet: ratio of biochemical IC50 values
readoutName: IC50 p110 alpha/IC50 p110 delta
Answers are plain numbers.

// below: answered compounds
compound: Cc1nc(-c2cn3c(n2)-c2cc(-c4ccnn4[C@@H]4CCCN(C5COC5)C4)c(F)cc2OCC3)n(C(C)C)n1 [Example 351]
IC50 p110 alpha/IC50 p110 delta: 16.6
//
compound: Cc1nc(-c2cn3c(n2)-c2ccc(-c4ccnn4C4CCN(C(C)(C)C)CC4)cc2OCC3)n(C(C)C)n1 [Example 269]
IC50 p110 alpha/IC50 p110 delta: 9.8

# map each compound to its IC50 p110 alpha/IC50 p110 delta
1. CC(C)n1ncnc1-c1cn2c(n1)-c1cc(CN3CCN(C(C)(C)C)CC3)ccc1OCC2 [Example 108]
2. CC(C)n1ncnc1-c1cn2c(n1)-c1cc(C(=O)N3CCN(C(C)(C)C)CC3)ccc1OCC2 [Example 110]

Reply:
21.8
27.1

----------
Please go through the items and note down their IC50 p110 alpha/IC50 p110 delta.
- targetEntity: p110 alpha (Homo sapiens (Human))
- testName: PI3K isoform inhibition assay, p110 alpha (for alpha/delta selectivity)
- conditionSet: ratio of biochemical IC50 values
One number for each entry.

compound: Cc1nc(-c2cn3c(n2)-c2ccc(-c4ccnn4C4CC(C)N(C)C(C)C4)cc2OCC3)n(C(C)C)n1 (stereo not drawn)
readoutName: IC50 p110 alpha/IC50 p110 delta
recordedValue: 76.9

Provide reported IC50 p110 alpha/IC50 p110 delta for each item, in the same order as listed.
1. Cc1nc(-c2cn3c(n2)-c2ccc(-c4cnc(C)n4C4CCCN(C(C)C)C4)cc2OCC3)n(C(C)C)n1 (stereo not drawn)
2. CC(Oc1ccc2c(c1)OCCn1cc(-c3ncnn3C(C)C)nc1-2)C1CCN(C(C)C)CC1 (stereo not drawn)
3. Cc1nc(-c2cn3c(n2)-c2cc(C(=O)N4CCN(C(C)(C)C)CC4)c(F)cc2OCC3)n(C(C)C)n1
4. Cc1nc(-c2cn3c(n2)-c2cc(-c4ccnn4[C@H]4CCCN(C5COC5)C4)c(F)cc2OCC3)n(C(C)C)n1

Reply:
1: 22.3; 2: 14.4; 3: 69.9; 4: 18

Please state, for each entry, its recorded IC50 p110 alpha/IC50 p110 delta.
1. Cc1nc(-c2cn3c(n2)-c2ccc(N4CCCC4C4CCCCN4C)cc2OCC3)n(C(C)C)n1 (stereo not drawn) [Example 324]
2. Cc1nc(-c2cn3c(n2)-c2cc(-c4cnn(C)c4C4CCCN(C(C)C)C4)c(F)cc2OCC3)n(C(C)C)n1 (stereo not drawn) [Example 358]
3. Cc1nc(-c2cn3c(n2)-c2ccc(N4CCC[C@@H]4CN4CCCC4)cc2OCC3)n(C(C)C)n1
4. Cc1nc(-c2cn3c(n2)-c2ccc(-n4ccnc4C4CCCN(C(C)C)C4)cc2OCC3)n(C(C)C)n1 (stereo not drawn)
5. Cc1nc(-c2cn3c(n2)-c2cc([C@@H](C)N4CCN(C(C)(C)CO)CC4)c(F)cc2OCC3)n(C(C)C)n1
6. Cc1nc(-c2cn3c(n2)-c2cc([C@H](C)N4CCN(C(C)C)CC4)c(C)cc2OCC3)n(C(C)C)n1

Reply:
15
67.1
52.9
40.4
47.5
13

Task item: State, in one line, measured IC50 p110 alpha/IC50 p110 delta of `Cc1nc(-c2cn3c(n2)-c2cc(-c4ccnn4[C@H]4CCCN(C(C)C)C4)c(F)cc2OCC3)n(C(C)C)n1`
Reply: 214
